Consider the following compounds and their measured pKi readings.
Target: human D4 receptor (Homo sapiens (Human), UniProt P21917)
Sequence (P21917 whole entry): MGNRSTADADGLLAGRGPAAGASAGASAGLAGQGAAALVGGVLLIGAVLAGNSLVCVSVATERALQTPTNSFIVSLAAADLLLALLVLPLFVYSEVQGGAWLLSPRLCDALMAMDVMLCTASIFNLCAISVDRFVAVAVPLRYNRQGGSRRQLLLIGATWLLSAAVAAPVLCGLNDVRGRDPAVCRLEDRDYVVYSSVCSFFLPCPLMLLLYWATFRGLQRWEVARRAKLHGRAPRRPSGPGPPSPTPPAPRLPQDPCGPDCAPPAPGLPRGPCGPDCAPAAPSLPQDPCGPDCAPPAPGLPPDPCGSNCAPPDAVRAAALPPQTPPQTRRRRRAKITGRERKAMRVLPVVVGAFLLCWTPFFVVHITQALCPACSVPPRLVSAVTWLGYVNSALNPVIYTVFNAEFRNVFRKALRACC
Experiment: Test 2: binding activity to human D4 receptor ([3H] dopamine, CHO cell membrane)
pKi (log units): -log10 of the concentration in mol/L.

Below, 2 compounds whose answers are already recorded.
| compound | pKi |
| --- | --- |
| O=C(NCCN1CC=C(c2cccc(C(F)(F)F)n2)CC1)C1CCCOC1 (stereo not drawn) [Example 16] | 7.57 |
| CC(C)(C)C(=O)NCCN1CC=C(c2cccc(C(F)(F)F)n2)CC1 [Example 31] | 8.54 |

The measured pKi that Cc1cccc(C2=CCN(CCNC(=O)C3CCCCO3)CC2)n1 (stereo not drawn) [Example 20] showed for human D4 receptor (Homo sapiens (Human), UniProt P21917) is 7.04

Form field, pKi with human D4 receptor (Homo sapiens (Human), UniProt P21917), item COCC(C)(C)C(=O)NCCN1CC=C(c2cccc(C(F)(F)F)n2)CC1 [Example 18] : 7.72

Let me check: Cc1cccc(C2=CCN(CCNC(=O)C(C)(C)C)CC2)n1 [Example 30] , system human D4 receptor (Homo sapiens (Human), UniProt P21917), measured pKi is 7.85

###

Target: UniProt:P08908
Assay: Test 1: agonistic activity for human 5-HT1A receptor (aequorin/Gα16 luminescence in CHO-K1 cell)
Conditions: CHO-K1 cell, aequorin luminescence
pEC50: −log10 of the molar value.
parameter_measured: pEC50

# annotated cases, reported pEC50 shown
| compound | pEC50 |
| --- | --- |
| Cc1cccc(C2=CCN(CCNC(=O)C3CCOCC3)CC2)n1 [Example 29] | > 8.00 |
| Cc1cccc(C2=CCN(CCNC(=O)[C@H]3C[C@@H]4CC[C@H]3O4)CC2)n1 [Example 13] | > 8.00 |

For reference, reported pEC50 for O=C(NCCN1CC=C(c2cccc(C(F)(F)F)n2)CC1)C1CCC(F)(F)CC1 [Example 12] stands at > 8.00

Consider CC(C)(C)C(=O)NCCN1CCC(c2cccc(C(F)(F)F)n2)CC1 [Example 9] . Its measured pEC50 is > 8.00

Short answer for O=C(NCCN1CCC(c2cccc(C(F)(F)F)n2)CC1)C1CCC(F)(F)CC1 [Example 1] : pEC50 was > 8.00

Query Cc1cccc(C2CCN(CCNC(=O)C3CCC(F)(F)CC3)CC2)n1 [Example 4] yields pEC50 of > 8.00

###

Molecular target: human 5-HT1A receptor (Homo sapiens (Human), UniProt P08908)
Sequence (P08908 whole entry): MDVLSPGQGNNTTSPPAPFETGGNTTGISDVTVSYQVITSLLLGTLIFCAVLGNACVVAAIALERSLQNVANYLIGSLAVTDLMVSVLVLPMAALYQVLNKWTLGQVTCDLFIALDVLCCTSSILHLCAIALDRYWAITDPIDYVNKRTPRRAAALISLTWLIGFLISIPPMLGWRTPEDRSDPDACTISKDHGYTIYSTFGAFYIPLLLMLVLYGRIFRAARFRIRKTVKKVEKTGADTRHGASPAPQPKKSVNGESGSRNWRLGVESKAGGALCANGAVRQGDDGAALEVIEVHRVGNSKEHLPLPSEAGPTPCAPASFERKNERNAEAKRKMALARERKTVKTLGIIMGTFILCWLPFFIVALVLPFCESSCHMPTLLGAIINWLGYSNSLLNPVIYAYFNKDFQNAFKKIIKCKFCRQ
Experiment: Test 2: binding activity to human 5-HT1A receptor ([3H] 8-OH-DPAT, CHO cell membrane)
Conditions: [3H] 8-OH-DPAT; read-out: 5-HT1A binding affinity (Ki value)
parameter_measured: Ki (µM)
Number in µM, nothing else.

| molecule | Ki (µM) |
| --- | --- |
| COCC(C)(C)C(=O)NCCN1CC=C(c2cccc(C(F)(F)F)n2)CC1 | 0.021 |

response.value for COCC(C)(C)C(=O)NCCN1CCC(c2cccc(C)n2)CC1 (field: Ki) = 0.08

// CC(C)(C)C(=O)NCCN1CC=C(c2cccc(C(F)(F)F)n2)CC1 : Ki value = 0.0003

Summary for this molecule, O=C(NCCN1CCC(c2cccc(C(F)(F)F)n2)CC1)C1CCCOC1 (centres unmarked) : Ki is 0.011

Sure, the documented Ki for COCC(C)(C)C(=O)NCCN1CCC(c2cccc(C(F)(F)F)n2)CC1 is 0.037

###

Metabolic stability of human liver microsome: recorded values
Test: Test 3-1: metabolic stability test of human liver microsome (0.1 mg/mL)
Assay type: in vitro ADME
Settings: test compound 0.1 μmol/L, 37° C., 30 minutes

Please review the entries below; each comes with its answer.
| compound | result |
| --- | --- |
| COCC(C)(C)C(=O)NCCN1CCC(c2cccc(C(F)(F)F)n2)CC1 [Example 6] | <0.01 mL/min/mg protein |
| COCC(C)(C)C(=O)NCCN1CCC(c2cccc(C)n2)CC1 [Example 5] | <0.01 mL/min/mg protein |
| COCC(C)(C)C(=O)NCCN1CC=C(c2cccc(C(F)(F)F)n2)CC1 [Example 18] | <0.05 mL/min/mg protein |
| CN(C)c1cccc(C2CCN(CCNC(=O)C3CCOCC3)CC2)n1 [Example 38] | <0.05 mL/min/mg protein |
| Cc1cccc(C2CCN(CCNC(=O)C(C)(C)C)CC2)n1 [Example 10] | 0.015 mL/min/mg protein |

O=C(NCCN1CC=C(c2cccc(C(F)(F)F)n2)CC1)C1CCC(F)(F)CC1 [Example 12] yielded Metabolic stability of human liver microsome of 0.115 mL/min/mg protein

The compound O=C(NCCN1CCC(c2cccc(C(F)F)n2)CC1)C1CCOCC1 [Example 34] showed Metabolic stability of human liver microsome equal to <0.05 mL/min/mg protein

O=C(NCCN1CCC(c2cccc(C(F)(F)F)n2)CC1)C1CCCO1 (stereo not drawn) [Example 25] has a reported Metabolic stability of human liver microsome of <0.05 mL/min/mg protein

Item: O=C(NCCN1CCC(c2cccc(C(F)(F)F)n2)CC1)C1CCCOC1 (stereo not drawn) [Example 2] | Metabolic stability of human liver microsome: 0.069 mL/min/mg protein

Lab note: Cc1cccc(C2CCN(CCNC(=O)C3CCC(F)(F)CC3)CC2)n1 [Example 4] gave Metabolic stability of human liver microsome of <0.01 mL/min/mg protein

Entry O=C(NCCN1CC=C(c2cccc(C(F)(F)F)n2)CC1)C1CCCOC1 (stereo not drawn) [Example 16] , Metabolic stability of human liver microsome reported as <0.05 mL/min/mg protein

For reference, reported Metabolic stability of human liver microsome for Cc1cccc(C2CCN(CCNC(=O)C3CC4CCC3O4)CC2)n1 (stereo not drawn) [Example 3] stands at <0.01 mL/min/mg protein

Reported Metabolic stability of human liver microsome of CC(C)(C)C(=O)NCCN1CC=C(c2cccc(C(F)(F)F)n2)CC1 [Example 31] : <0.05 mL/min/mg protein

Form: compound = O=C(NCCN1CCC(c2cccc(C(F)(F)F)n2)CC1)[C@H]1C[C@@H]2CC[C@H]1O2 [Example 21] ; Metabolic stability of human liver microsome = <0.05 mL/min/mg protein

Recorded result, Cc1cccc(C2=CCN(CCNC(=O)C3CCC(F)(F)CC3)CC2)n1 [Example 14] , Metabolic stability of human liver microsome: 0.084 mL/min/mg protein

###

Target: human D2 receptor (Homo sapiens (Human), UniProt P14416)
Sequence (P14416 whole entry): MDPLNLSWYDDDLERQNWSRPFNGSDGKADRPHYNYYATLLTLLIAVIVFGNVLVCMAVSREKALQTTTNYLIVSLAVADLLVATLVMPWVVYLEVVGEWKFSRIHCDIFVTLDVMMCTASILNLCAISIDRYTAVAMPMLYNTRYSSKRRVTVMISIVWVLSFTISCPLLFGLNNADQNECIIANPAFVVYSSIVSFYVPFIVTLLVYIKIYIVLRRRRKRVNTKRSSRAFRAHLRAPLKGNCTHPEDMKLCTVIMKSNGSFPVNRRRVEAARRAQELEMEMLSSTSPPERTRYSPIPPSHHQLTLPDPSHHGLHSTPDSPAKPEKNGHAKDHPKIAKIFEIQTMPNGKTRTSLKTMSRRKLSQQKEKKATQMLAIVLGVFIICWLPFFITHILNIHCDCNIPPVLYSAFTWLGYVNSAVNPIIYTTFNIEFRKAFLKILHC
Experiment: Test 2: binding activity to human D2 receptor ([3H] spiperone, CHO cell membrane)
Conditions: [3H] spiperone; read-out: D2 binding affinity (Ki value)
pKi: −log10 of the molar value.
parameter_measured: pKi

| molecule | parameter_measured | result |
| --- | --- | --- |
| O=C(NCCN1CC=C(c2cccc(C(F)(F)F)n2)CC1)C1CCC(F)(F)CC1 [Example 12] | pKi | 6.45 |
| COCC(C)(C)C(=O)NCCN1CC=C(c2cccc(C(F)(F)F)n2)CC1 [Example 18] | pKi | 5.66 |
| CN(C)c1cccc(C2CCN(CCNC(=O)C3CCOCC3)CC2)n1 [Example 38] | pKi | < 5.00 |
| Cc1cccc(C2CCN(CCNC(=O)C3CCOC3)CC2)n1 (stereo not drawn) [Example 22] | pKi | < 5.00 |
| CO[C@H]1CC[C@H](C(=O)NCCN2CCC(c3cccc(C)n3)CC2)CC1 [Example 26] | pKi | < 5.00 |

Kindly note the recorded pKi for Cc1cccc(C2CCN(CCNC(=O)C3CCCO3)CC2)n1 (stereo not drawn) [Example 24] , which is < 5.00

The value of pKi measured for the molecule Cc1cccc(C2CCN(CCNC(=O)C3CCC(F)(F)CC3)CC2)n1 [Example 4] turned out to be < 5.00

The molecule listed as COCC(C)(C)C(=O)NCCN1CCC(c2cccc(C)n2)CC1 [Example 5] has a reported pKi of < 5.00

Looking up O=C(NCCN1CCC(c2cccc(C(F)(F)F)n2)CC1)C1CCC(F)(F)CC1 [Example 1] , I see its pKi listed as 5.94

The recorded pKi for entry CC(C)(C)C(=O)NCCN1CC=C(c2cccc(C(F)(F)F)n2)CC1 [Example 31] equals 5.89

Sample CO[C@H]1CC[C@H](C(=O)NCCN2CCC(c3cccc(C(F)(F)F)n3)CC2)CC1 [Example 27] ; pKi observed: < 5.00

###

Target: UniProtKB P21917
Assay: Test 1: agonistic activity for human D4 receptor (aequorin/Gα16 luminescence in CHO-K1 cell)
Format: cell-based
Conditions: CHO-K1; 100% = 10 μmol/L endogenous ligand
parameter_measured: Emax (%)
Output spec: scalar in %, unitless text.

| compound | Emax [%] |
| --- | --- |
| Cc1cccc(C2CCN(CCNC(=O)C3CCOCC3)CC2)n1 | 65 |
| CC(C)(C)C(=O)NCCN1CCC(c2cccc(C(F)(F)F)n2)CC1 | 53 |
| O=C(NCCN1CC=C(c2cccc(C(F)(F)F)n2)CC1)C1CCCOC1 (stereo not shown) | 51 |
| Nc1cccc(C2CCN(CCNC(=O)C3CCOCC3)CC2)n1 | 58 |
| O=C(NCCN1CCC(c2cccc(C(F)(F)F)n2)CC1)C1CCCO1 (stereo not shown) | 49 |

According to the records, this compound O=C(NCCN1CC=C(c2cccc(C(F)(F)F)n2)CC1)C1CCOCC1 displays Emax of 84

The compound identified as O=C(NCCN1CCC(c2cccc(C(F)(F)F)n2)CC1)C1CCOCC1 registered its Emax at 56

// O=C(NCCN1CC=C(c2cccc(C(F)(F)F)n2)CC1)C1CCC(F)(F)CC1 : Emax value = 52

// field: Emax; key: O=C(NCCN1CCC(c2cccc(C(F)F)n2)CC1)C1CCOCC1 ; value = 55

// field: Emax; key: O=C(NCCN1CCC(c2cccc(C(F)(F)F)n2)CC1)C1CCC(F)(F)CC1 ; value = 67
